target: UCHL1 (Homo sapiens, UniProt P09936); assay: Fluorescence-based Ub-Rho deubiquitinase activity assay; format: biochemical; design: made in house; conditions: 3 h of preincubation with UCHL1; technical triplicate, averages; read-out: IC50
Sequence (P09936 whole entry): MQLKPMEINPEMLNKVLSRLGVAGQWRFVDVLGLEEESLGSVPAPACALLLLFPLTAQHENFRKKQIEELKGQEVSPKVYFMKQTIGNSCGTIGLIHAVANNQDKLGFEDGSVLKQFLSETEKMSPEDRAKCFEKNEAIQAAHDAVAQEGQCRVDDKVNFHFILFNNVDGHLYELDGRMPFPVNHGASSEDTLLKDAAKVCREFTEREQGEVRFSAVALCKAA
Where a SMILES comes first, the peptide text is derived from it. The star is where a group is joined. Cbz = O=C(OCc1ccccc1)*; CH2F = FC*
Observable: pIC50
Lab note — pIC50 values are minus log10 of concentrations in M.

{"columns": ["Molecule", "pIC50"],
 "data": [
  ["C#Cc1ccc(COC(=O)N[C@H](C(=O)N[C@@H](C)C(=O)N[C@@H](CCC(=O)OC)C(=O)CF)C(C)C)cc1", 5.11]
]}

From here, focus on the item given below.
Lab note: UCHL1 (Homo sapiens, UniProt P09936) assay, enter pIC50 for COC(=O)CC[C@H](NC(=O)[C@H](CO)NC(=O)[C@@H](NC(=O)OCc1ccccc1)C(C)C)C(=O)CF [Cpd 29] (Cbz-Val-Ser-Glu(OMe)-CH2F) here
4.00

* * *

target: UCHL1 (Homo sapiens); experiment: Fluorescence-based Ub-Rho deubiquitinase activity assay; type: biochemical; set-up: made in house; details: 3 h of preincubation with UCHL1; technical triplicate, averages; read-out: IC50
Where a SMILES comes first, the peptide text is derived from it. The star is where a group is joined. Cbz = O=C(OCc1ccccc1)*; CH2F = FC*
Observable: pIC50
// pIC50 here means minus log10 of the molar concentration (mol/L)

Example compounds with recorded pIC50:
{"columns": ["Compound", "Assayed target", "Observable", "Measurement"],
 "data": [
  ["COC(=O)CC[C@H](NC(=O)[C@H](C)NC(=O)[C@H](CC(C)C)NC(=O)OCc1ccccc1)C(=O)CF [Cpd 20] (Cbz-Leu-Ala-Glu(OMe)-CH2F)", "UCHL1 (Homo sapiens)", "pIC50", 4.64],
  ["COC(=O)CC[C@H](NC(=O)CNC(=O)[C@@H](NC(=O)OCc1ccccc1)C(C)C)C(=O)CF [Cpd 15] (Cbz-Val-Gly-Glu(OMe)-CH2F)", "UCHL1 (Homo sapiens)", "pIC50", 4.02]
]}

Consider the record given below.
Give me measured pIC50, please, for this compound: COC(=O)CC[C@H](NC(=O)[C@H](C)NC(=O)[C@H](C)NC(=O)OCc1ccccc1)C(=O)CF [Cpd 19] (Cbz-Ala-Ala-Glu(OMe)-CH2F)
4.12

* * *

molecular target: UCHL1 (Homo sapiens); assay: Fluorescence-based Ub-Rho deubiquitinase activity assay; format: biochemical; parameters: made in house; details: 3 h of preincubation with UCHL1; technical triplicate, averages; read-out: IC50
Where a SMILES comes first, the peptide text is derived from it. The star is where a group is joined. Cbz = O=C(OCc1ccccc1)*; CH2F = FC*
Observable: IC50 (µM)
State just the number; it will be interpreted in µM.

{"columns": ["Compound", "Measurement"],
 "data": [
  ["C#Cc1ccc(COC(=O)N[C@@H](Cc2ccccc2)C(=O)N[C@@H](C)C(=O)N[C@@H](CCC(=O)OC)C(=O)CF)cc1 [Cpd 36]", 11],
  ["COC(=O)CC[C@H](NC(=O)[C@H](C)NC(=O)[C@H](CC(N)=O)NC(=O)OCc1ccccc1)C(=O)CF [Cpd 24] (Cbz-Asn-Ala-Glu(OMe)-CH2F)", 119],
  ["C#Cc1ccc(COC(=O)N[C@H](C(=O)NCC(=O)N[C@@H](CCC(=O)OC)C(=O)CF)C(C)C)cc1 [Cpd 35]", 62],
  ["COC(=O)CC[C@H](NC(=O)[C@H](C)NC(=O)[C@@H](NC(=O)OCc1ccccc1)[C@@H](C)O)C(=O)CF [Cpd 23] (Cbz-Thr-Ala-Glu(OMe)-CH2F)", 100]
]}

Continue with the next compound.
Identify the reported IC50 for the following entry. COC(=O)CC[C@H](NC(=O)[C@H](C)NC(=O)[C@H](CO)NC(=O)OCc1ccccc1)C(=O)CF [Cpd 22] (Cbz-Ser-Ala-Glu(OMe)-CH2F)
185

Recorded values, source paper PMC7956625.
